Assay: qHTS assay to identify small molecule antagonists of the estrogen receptor alpha (ER-alpha) signaling pathway using the BG1 cell line (AID 743080);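 further: BG1 cells stimulated with 17beta-estradiol alongside compound; nearly all actives have a fitted effect of over 25% in size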
Details: BG1Luc4E2 ERE-luciferase antagonist mode, luminescence; series mostly up to 70.3 µM
From the text: National Center for Advancing Translational Sciences [NCATS] NIH Chemical Genomics Center [NCGC] U.S. Environmental Protection Agency [EPA] National Institutes of Environmental Health Sciences [NIEHS] National Toxicology Program [NTP] U.S. Food and Drug Administration [FDA] Estrogen receptor (ER), a nuclear hormone receptor, plays an important role in development, metabolic homeostasis and reproduction. […]
Results filed as inconclusive are left out. Activity calls are given as the source filed them. The call rests on the fitted dose curve.
Reported endpoint: outcome

Worked cases, answers included:
COC(=O)c1ccc(C=O)cc1; inactive
CC(=O)/C=C/C1=C(C)CCCC1(C)C; inactive
COC(=O)C1CCC(C(=O)OC)CC1 (stereo not drawn); inactive
NC(=O)N/N=C/c1ccc([N+](=O)[O-])o1; inactive
COCCOCCOC; inactive
COc1cc(O)c(C(=O)c2ccccc2)cc1S(=O)(=O)O; inactive
COC(=O)c1ccc(O)cc1; inactive

The recorded outcome for CC(C)(C)NCC(O)c1ccc(O)c(CO)c1 (stereo not drawn) is inactive

Ref: PubChem BioAssay (Tox21)
